# System Name: T1, human IL-15Rα (human, UniProt Q13261 31-205, limits assumed)
# T1 construct: also called hIL-15Rα; IL-15 receptor alpha
# T1 sequence (Q13261 31-205 limits assumed): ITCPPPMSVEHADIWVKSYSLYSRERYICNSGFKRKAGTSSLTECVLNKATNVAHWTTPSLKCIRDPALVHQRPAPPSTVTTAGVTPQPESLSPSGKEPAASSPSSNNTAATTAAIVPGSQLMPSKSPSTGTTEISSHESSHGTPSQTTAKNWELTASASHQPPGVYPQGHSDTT
# Procedure Summary: SPR, steady state
Quantity: Kd (nM)

# count of solved cases: 2
Binder: hIL-15 V49R/N1K (ligand) KWVNVISDLKKIEDLIQSMHIDATLYTESDVHPSCKVTAMKCFLLELQRISLESGDASIHDTVENLIILANNSLSSNGNVTESGCKECEELEEKNIKEFLQSFVHIVQMFINTGGGGSGHHHHHHHHGGGLNDIFEAQKIEWHE
Result Value: 264
//
Binder: hIL-15 V49R/E64T (ligand) NWVNVISDLKKIEDLIQSMHIDATLYTESDVHPSCKVTAMKCFLLELQRISLESGDASIHDTVTNLIILANNSLSSNGNVTESGCKECEELEEKNIKEFLQSFVHIVQMFINTGGGGSGHHHHHHHHGGGLNDIFEAQKIEWHE
Result Value: 141

[A] hIL-15 V49R/I68G (ligand) NWVNVISDLKKIEDLIQSMHIDATLYTESDVHPSCKVTAMKCFLLELQRISLESGDASIHDTVENLIGLANNSLSSNGNVTESGCKECEELEEKNIKEFLQSFVHIVQMFINTGGGGSGHHHHHHHHGGGLNDIFEAQKIEWHE
[B] hIL-15 V49R/K11Y (ligand) NWVNVISDLKYIEDLIQSMHIDATLYTESDVHPSCKVTAMKCFLLELQRISLESGDASIHDTVENLIILANNSLSSNGNVTESGCKECEELEEKNIKEFLQSFVHIVQMFINTGGGGSGHHHHHHHHGGGLNDIFEAQKIEWHE
Between A and B , which one has the lower reported Kd value? Label of pick, please.
A
